The reported numbers originate from patent US20210269434A1.

targetOrTestSystem: KRAS G12D (Homo sapiens, UniProt P01116, G12D)
Sequence (P01116 1-188 isoform P01116-2 G12D): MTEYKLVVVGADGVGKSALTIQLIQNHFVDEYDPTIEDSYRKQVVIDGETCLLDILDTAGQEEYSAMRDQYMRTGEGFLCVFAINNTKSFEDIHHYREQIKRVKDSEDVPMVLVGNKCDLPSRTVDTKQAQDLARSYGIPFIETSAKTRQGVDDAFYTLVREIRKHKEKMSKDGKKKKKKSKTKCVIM
runDescription: GDP-GTP exchange assay (KRAS_G12D exchange)
experimentalSetup: bodipy loaded KRAS G12D 2.5 nM; 4 hours incubation after GppNHp-SOS1; read-out: G12D_exchange
measuredQuantity: IC50

Lab book: IC50 of CN(C)C1CN(c2nc3c(F)c(-c4cc(O)cc5ccccc45)c(CCC#N)cc3c3c2nc(CN2CCOCC2=O)n3C2C3CNC2C3)C1 (single isomer, unassigned) [Example 300a] noted as ≤ 100 nM

In plain terms, CN(C)C(=O)CCc1nc2c(N3CC(N(C)C)C3)nc3c(F)c(-c4cccc5ccc(F)cc45)c(CCC#N)cc3c2n1C1C2CNC1C2 (single isomer, unassigned) [Example 291b] has a documented IC50 of ≤ 100 nM

CN(C)C1CN(c2nc3c(F)c(-c4cc(O)cc5ccc(Cl)cc45)c(Cl)cc3c3c2ncn3[C@H]2[C@H]3CN[C@@H]2C3)C1 (single isomer, unassigned) [Example 23a] has a reported IC50 of 100 to 1000 nM

What the record says about CN(C)C(=O)CCc1nc2c(-c3ccc(=O)n(C)c3)nc3c(F)c(-c4cc(O)cc5ccccc45)c(CCC#N)cc3c2n1C1C2CNC1C2 (stereo not drawn) [Example 298] : IC50 is ≤ 100 nM

The molecule CN(C)C(=O)CCc1nc2c(N3CC(N(C)C)C3)nc3c(Cc4ccccc4)c(-c4cc(O)cc5ccccc45)c(CCC#N)cc3c2n1[C@@H]1[C@@H]2CN[C@H]1C2 (racemic) [Example 294] showed IC50 equal to 100 to 1000 nM

Query CN(C)C1CN(c2nc3c(F)c(-c4cc(O)cc5ccccc45)c(Cl)cc3c3c2nc(CC2CCNCC2)n3[C@H]2[C@H]3CN[C@@H]2C3)C1 (relative stereo) [Example 77] yields IC50 of 1000 to 5000 nM

The recorded IC50 for Cc1ccc2cc(O)cc(-c3c(Cl)cc4c(nc(N5CC(N(C)C)C5)c5ncn([C@H]6[C@H]7CN[C@@H]6C7)c54)c3F)c2c1 [Example 24] is 1000 to 5000 nM

For this molecule ( CN(C)C(=O)CCc1nc2c(N3CC(N(C)C)C3)nc3c(Oc4ccccc4)c(-c4cc(O)cc5ccccc45)c(CCC#N)cc3c2n1C1C2CNC1C2 (stereo not drawn) [Example 293] ), measured IC50 is 100 to 1000 nM

response.value for CN(C)C1CN(c2nc3c(F)c(-c4cc(O)cc5ccccc45)c(CCC#N)cc3c3c2nc(-c2csc(N4CCNCC4)n2)n3C2C3CNC2C3)C1 (single isomer, unassigned) [Example 302a] (field: IC50) = ≤ 100 nM

====

targetOrTestSystem: KRAS G12C (Homo sapiens, UniProt P01116, G12C)
Sequence (P01116 1-188 isoform P01116-2 G12C): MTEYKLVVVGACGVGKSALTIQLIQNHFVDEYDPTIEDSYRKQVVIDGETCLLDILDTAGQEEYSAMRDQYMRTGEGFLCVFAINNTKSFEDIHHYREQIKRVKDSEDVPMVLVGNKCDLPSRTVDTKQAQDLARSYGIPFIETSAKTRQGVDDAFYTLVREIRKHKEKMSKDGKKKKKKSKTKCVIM
runDescription: GDP-GTP exchange assay (KRAS_G12C exchange)
experimentalSetup: bodipy-GDP loaded KRAS G12C 2.5 nM, SOS1 150 nM, GppNHp; 2 hours pre-incubation, 2 hours reaction; read-out: G12C_exchange
pIC50: −log10 of the molar value.
Please respond with reported pIC50 for every item in the list.

Data point: C=CC(=O)N1CCC(n2nnc3c(N4CC(N(C)CC)C4)nc4c(F)c(-c5cccc6cccc(Cl)c56)c(Cl)cc4c32)C[C@H]1CC#N (single isomer, unassigned) [Example 219a] ; pIC50 = ≥ 7.00

What the record says about "Cc1nccn1-c1nc2c(F)c(-c3ccccc3)c(Cl)cc2c2c1ncn2[C@H]1CCN(C(=O)/C=C/CN(C)C)[C@H](CC#N)C1" : pIC50 is ≥ 7.00

The recorded pIC50 for entry "CC#CC(=O)N1CC[C@H](n2nnc3c(OC[C@@H]4CCCN4C)nc4c(F)c(-c5cccc(C#N)c5C)c(Cl)cc4c32)C[C@H]1CC#N" equals ≥ 7.00
